Target: human DNA-PK (Homo sapiens, UniProt P78527)
Construct: The frozen HeLa cell pellet was thawed at 37° C. and immediately centrifuged; endogenous in cells; host or cells: HeLa S3 cells (ATCC CCL-2.2); Endogenous enzyme purified via S100-2 fraction, Q-Sepharose FF and SP-Sepharose FF (fraction IV)
Experiment: Standard DNA-PK assay (p53 peptide phosphorylation)
Assay type: biochemical
Conditions: read-out: IC50 (nM) DNA-PK Assay
propertyName: IC50 (nM)

> print(dat)
                                   compound                                targetdesc  testresult
1  CC(=O)c1cc(F)c(N2CCOCC2)cc1O [Example 43 C]  human DNA-PK (Homo sapiens, UniProt P78527)        1500
2  O=C(c1ccccc1)c1ccc(N2CCOCC2)cc1O [Example 37]  human DNA-PK (Homo sapiens, UniProt P78527)         120
3   COC(=O)c1cc(N2CCOCC2)ccc1O [Example 47]  human DNA-PK (Homo sapiens, UniProt P78527)       40000
